Target: hTRPA1 (Homo sapiens, UniProt O75762, K186N)
Construct: expressed in transfected cells; host or cells: HEK293/TREx (Invitrogen), induced with tetracycline
Sequence (O75762 whole entry K186N): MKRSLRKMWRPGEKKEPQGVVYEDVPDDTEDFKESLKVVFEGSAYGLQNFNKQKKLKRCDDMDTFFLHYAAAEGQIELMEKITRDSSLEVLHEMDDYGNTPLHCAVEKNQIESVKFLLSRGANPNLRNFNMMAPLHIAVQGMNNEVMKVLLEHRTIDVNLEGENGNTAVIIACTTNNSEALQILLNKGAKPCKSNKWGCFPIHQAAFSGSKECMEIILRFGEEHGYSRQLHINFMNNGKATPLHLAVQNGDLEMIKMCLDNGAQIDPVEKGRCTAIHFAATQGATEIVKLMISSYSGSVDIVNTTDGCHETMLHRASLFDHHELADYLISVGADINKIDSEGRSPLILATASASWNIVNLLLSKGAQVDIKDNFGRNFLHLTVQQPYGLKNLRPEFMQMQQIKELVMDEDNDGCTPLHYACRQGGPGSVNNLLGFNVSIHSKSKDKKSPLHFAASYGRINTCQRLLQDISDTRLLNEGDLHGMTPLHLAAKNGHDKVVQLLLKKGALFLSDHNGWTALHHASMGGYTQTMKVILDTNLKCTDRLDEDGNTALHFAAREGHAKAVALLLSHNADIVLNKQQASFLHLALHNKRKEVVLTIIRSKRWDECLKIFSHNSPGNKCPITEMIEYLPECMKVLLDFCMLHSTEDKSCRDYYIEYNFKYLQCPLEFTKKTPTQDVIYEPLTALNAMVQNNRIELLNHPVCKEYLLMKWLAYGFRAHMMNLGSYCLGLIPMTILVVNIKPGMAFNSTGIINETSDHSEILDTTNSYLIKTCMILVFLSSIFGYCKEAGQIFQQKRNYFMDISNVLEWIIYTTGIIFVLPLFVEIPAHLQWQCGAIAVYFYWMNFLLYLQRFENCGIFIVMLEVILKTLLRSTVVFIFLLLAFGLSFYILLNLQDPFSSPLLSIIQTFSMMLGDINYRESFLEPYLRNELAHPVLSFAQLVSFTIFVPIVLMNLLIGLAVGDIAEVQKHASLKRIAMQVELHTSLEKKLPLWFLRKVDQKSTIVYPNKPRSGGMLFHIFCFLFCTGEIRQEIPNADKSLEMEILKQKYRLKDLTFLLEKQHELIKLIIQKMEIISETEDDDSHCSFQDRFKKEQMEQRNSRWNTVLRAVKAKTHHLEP
Assay: High throughput Ca2+ fluorescence (Fluo4) assay, AITC stimulation
Assay type: cell-based
Conditions: Table 2; read-out: hTRPA1 Fluor IC50
pIC50: −log10 of the molar value.
In this section, each of the compounds is paired with its reported pIC50.

compound: Cn1c(=O)c2c(ncn2CC(=O)Nc2ccccn2)n(C)c1=O
pIC50: < 5.00
//
compound: CC(C(=O)Nc1cccc(C(F)(F)F)c1)n1cnc2c1c(=O)n(C)c(=O)n2C (stereo not drawn)
pIC50: < 5.00
//
compound: CCNC(=O)Cn1cnc2c1c(=O)n(C)c(=O)n2C
pIC50: < 5.00

---

Assay: Plasma levels / pharmacokinetics in male Sprague-Dawley rat
Format: in vivo
Settings: plasma; male Sprague-Dawley rat, intravenous bolus 0.9 mg/kg; read-out: volume of distribution
Experimental: Compound 200 plasma levels were determined via HPLC/MS/MS following a single intravenous bolus dose of 0.9 mg/kg, an intraperitoneal dose of 12 mg/kg (suspension), and an oral dose of 12 mg/kg (suspension) in the male Sprague-Dawley rat. […] For intraperitoneal administration, Compound 200 was formulated as a uniform suspension in CMC (carboxymethylcellulose) at a target concentration of 1 mg/mL and administered at a dose volume of 10 mL/kg. […]
parameter_measured: Vd (L/kg)

smiles_string: CC(C)c1ccc(NC(=O)Cn2cnc3c2c(=O)n(C)c(=O)n3C)cc1
endpoint_unit: L/kg
obs_value: 1.28

---

Target: hTRPA1 (Homo sapiens, UniProt O75762, K186N)
Construct: expressed in transfected cells; host or cells: HEK293/TREx (Invitrogen), induced with tetracycline
Assay: High throughput Ca2+ fluorescence (Fluo4) assay, AITC stimulation
Format: cell-based
Conditions: Table 2; read-out: hTRPA1 Fluor IC50
parameter_measured: IC50

molecule: Cc1ccc(NC(=O)Cn2cnc3c2c(=O)n(C)c(=O)n3C)nc1
obs_value: ≥ 30 µM
//
molecule: CCc1sc(NC(=O)Cn2cnc3c2c(=O)n(C)c(=O)n3C)nc1-c1ccccc1
obs_value: ≤ 10 µM
//
molecule: CCOC(=O)c1ccc(NC(=O)Cn2cnc3c2c(=O)n(C)c(=O)n3C)cc1
obs_value: ≤ 5 µM
//
molecule: Cn1c(=O)c2c(ncn2CC(=O)Nc2ccc3c(c2)OCCCO3)n(C)c1=O
obs_value: ≤ 10 µM
//
molecule: Cn1c(=O)c2c(ncn2CC(=O)Nc2ccncc2)n(C)c1=O
obs_value: > 10 µM
//
molecule: COc1cc2c(cc1NC(=O)Cn1cnc3c1c(=O)n(C)c(=O)n3C)oc1ccccc12
obs_value: > 10 µM
//
molecule: Cn1c(=O)c2c(ncn2CC(=O)Nc2nc(-c3ccc(Br)cc3)cs2)n(C)c1=O
obs_value: ≤ 1 µM
//
molecule: CC(C)c1ccc(NC(=O)Cn2cnc3c2c(=O)n(C)c(=O)n3C)cc1
obs_value: ≤ 5 µM
//
molecule: Cc1cc(Cl)ccc1NC(=O)Cn1cnc2c1c(=O)n(C)c(=O)n2C
obs_value: > 10 µM
//
molecule: Cn1c(=O)c2c(ncn2CC(=O)Nc2ccc(N3CCOCC3)cc2)n(C)c1=O
obs_value: ≤ 5 µM
//
molecule: CCc1cccc(C)c1NC(=O)Cn1cnc2c1c(=O)n(C)c(=O)n2C
obs_value: > 10 µM
//
molecule: Cc1ccc(NC(=O)Cn2cnc3c2c(=O)n(C)c(=O)n3C)c(Br)c1
obs_value: ≥ 20 µM
//
molecule: Cn1c(=O)c2c(ncn2CC(=O)Nc2ccccc2Sc2ccccc2)n(C)c1=O
obs_value: ≤ 10 µM
//
molecule: Cc1cc(C)c(-c2csc(NC(=O)Cn3cnc4c3c(=O)n(C)c(=O)n4C)n2)c(C)c1
obs_value: > 10 µM
//
molecule: CC(C(=O)Nc1ccccc1)n1cnc2c1c(=O)n(C)c(=O)n2C (centres unmarked)
obs_value: > 10 µM
//
molecule: Cc1ccc(NC(=O)Cn2cnc3c2c(=O)n(C)c(=O)n3C)c(Cl)c1
obs_value: > 10 µM
//
molecule: Cn1c(=O)c2c(ncn2CC(=O)Nc2ccc3c(c2)OCO3)n(C)c1=O
obs_value: > 10 µM
